Origin of values: patent US20220380459A1

biological target: T1, V domain of human CD33 (human, UniProt P20138 18-139, limits assumed); assay: SPR, Fab captured, 37C;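 also: biacore 8K surface plasmon resonance with Fabs held on an amine-coupled anti-Fab antibody surface, soluble monomeric CD33 domain injected as analyte, double-referenced 1:1 binding fit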
T1 construct: recombinant, fully glycosylated V domain; also called Human CD33 V domain
MEASUREMENT_NAME: koff (s⁻¹)
Reply with just the number (in s⁻¹).

Worked cases, answers included:
{"columns": ["BINDER", "koff / s⁻¹"],
 "data": [
  ["ADI-11819 Fab (Fab, V domains shown, Fab fragment; also called Ab8) VH: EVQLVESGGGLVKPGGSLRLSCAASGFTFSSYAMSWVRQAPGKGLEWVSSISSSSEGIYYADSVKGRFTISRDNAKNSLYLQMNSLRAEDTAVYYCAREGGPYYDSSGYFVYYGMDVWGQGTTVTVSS VL: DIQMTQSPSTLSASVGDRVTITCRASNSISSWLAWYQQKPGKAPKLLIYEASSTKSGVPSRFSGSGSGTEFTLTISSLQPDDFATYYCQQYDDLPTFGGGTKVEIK", 0.000916],
  ["ADI-11825 Fab (Fab, V domains shown, Fab fragment; also called Ab25) VH: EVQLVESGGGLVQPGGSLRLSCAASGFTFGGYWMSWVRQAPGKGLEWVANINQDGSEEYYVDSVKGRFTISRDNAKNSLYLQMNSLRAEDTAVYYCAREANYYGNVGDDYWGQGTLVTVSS VL: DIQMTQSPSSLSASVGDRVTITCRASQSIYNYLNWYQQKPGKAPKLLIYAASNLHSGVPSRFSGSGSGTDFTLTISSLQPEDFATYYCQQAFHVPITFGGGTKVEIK", 0.0195]
]}

# next binder below
stdin: # get_value(readout='koff', item= ADI-11835 Fab (Fab, V domains shown, Fab fragment; also called Ab10; I35) VH: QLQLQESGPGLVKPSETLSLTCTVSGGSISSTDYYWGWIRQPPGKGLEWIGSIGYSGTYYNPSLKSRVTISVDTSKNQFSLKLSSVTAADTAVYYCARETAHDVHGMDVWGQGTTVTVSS VL: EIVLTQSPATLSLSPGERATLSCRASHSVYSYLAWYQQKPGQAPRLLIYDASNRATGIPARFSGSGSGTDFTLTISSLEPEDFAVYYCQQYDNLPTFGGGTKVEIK )
stdout: 0.00868
